# RUN_DESCRIPTION: endothelial E-selectin expression blockers – imaging, HUVEC, immunofluorescence, MLSMR starter and 10KST1 sets, primary screen (AID 487);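 further: 100% = median nuclei count of all wells on the same plate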
# PROTOCOL_CONDITIONS: HUVEC TNFalpha-induced E-selectin immunofluorescence imaging, at 2 µM; measured here: cell number, toxicity
PROPERTY_MEASURED: nuclei count (%)
Answers are plain numbers, in %.

Consider the following illustrative entries.
| COMPOUND | UNIT_TAG | nuclei count |
| --- | --- | --- |
| COc1ccc(OC(C)C(=O)N2CC(C)OC(C)C2)cc1 (configuration not stated) | % | 120 |
| FC(F)(F)c1cc(-c2ccco2)nc(-n2nnc3ccccc32)n1 | % | 101 |
| COc1ccc(C(=O)NCC(=O)n2nc(C)cc2C)cc1OC | % | 95.9 |
| Cn1c(=O)n(C)c2cc(CNc3ccc(N4CCOCC4)c(C(=O)O)c3)ccc21 | % | 110 |
| CCOc1ccc(C(=O)N2CCC(C(=O)c3ccc4c(c3)OCCO4)CC2)cc1 | % | 116 |

For the 2 compounds below, give their nuclei count values.
1. O=C(c1ccc(Cl)cc1)N(Cc1cccs1)C1CCS(=O)(=O)C1 (configuration not stated)
2. Cc1onc(-c2c(Cl)cccc2Cl)c1C(=O)NCCCN1CCOCC1

Solution:
112
84

For the 2 compounds below, give their nuclei count values.
1. Cc1ccc(S(=O)(=O)c2nc(-c3ccco3)oc2SCC(=O)NCC2CCCO2)cc1 (configuration not stated)
2. CC(C)(C)n1nc2c(c1NC(=O)COc1ccc(Cl)cc1)CSC2

Solution:
[109, 95.3]

For the 6 compounds below, give their nuclei count values.
1. CCOC(=O)c1sc(NC(=O)CSc2nc3c(cc2C#N)CCC3)c(C#N)c1C
2. CCOc1ccc(CN2CCN(c3cc(C)nc4c5c(C)cc(C)nc5nn34)CC2)cc1
3. COc1ccc(OC)c(NC(=O)Cc2coc3ccc(C)cc23)c1
4. CCn1c(SCC(=O)N2CCCc3ccccc32)nnc1-c1cccs1
5. Cc1nc(C)c(C(=O)C2=C(O)C(=O)N(CCN3CCOCC3)C2c2cccnc2)s1 (configuration not stated)
6. COc1ccccc1N1CCN(C(=O)CSc2nc(-c3ccccc3)cc(=O)[nH]2)CC1

Solution:
1: 140; 2: 114; 3: 90.5; 4: 129; 5: 96.9; 6: 124

For the 7 compounds below, give their nuclei count values.
1. CCS(=O)(=O)c1nc2ccccc2n1CC(=O)N1CCOCC1
2. COC(=O)c1c(N)nc(C)n1-c1ccc(OC)cc1
3. COCCn1nnnc1C(c1cc2cc(C)cc(C)c2[nH]c1=O)N1CCN(c2ccccc2F)CC1 (configuration not stated)
4. O=C(CN(c1ccccc1)S(=O)(=O)c1ccccc1)N1CCN(Cc2ccc3c(c2)OCO3)CC1
5. CCOC(=O)c1cc(-c2ccc(Cl)s2)nc2c1c(C)nn2C
6. COc1ccccc1-c1ccc(Nc2cccc(C(C)=O)c2)nn1
7. CCc1oc2ccccc2c1C(=O)c1cc(Br)c(O)c(Br)c1

Solution:
[98.1, 103, 130, 116, 106, 103, 132]

Data credit: PubChem BioAssay
